Test: KARI assay of purified S. exigua KARI and variants with NADPH (Examples 6-9)
Type: biochemical
Conditions: cofactor NADPH
Give U/mg NADPH (specific activity) for every item shown.

For orientation, consider the following solved cases.
Molecule	Readout type	Measured result
Se1_KARI^MH9-his6: S. exigua KARI variant V99L (protein, UniProt D0WGK0 1-342, looked up, variant V99L, His6 tag, S. exigua KARI variant V99L) Ketol-acid reductoisomerase …: MSVKTKEKEMAVTILYEQDVDPKVIQGLKVGIIGYGSQGHAHALNLMDSGVDVRVGLREGSSSWKTAEEAGLKVTDMDTAAEEADVIMVLVPDEIQPKLYQEHIAAHLKAGNTLAFAHGFNIHYGYIVPPEDVNVIMCAPKGPGHIVRRQFTEGSGVPDLACVQQDATGNAWDIVLSYCWGVGGARSGIIKATFAEETEEDLFGEQAVLCGGLVELVKAGFETLTEAGYPPELAYFECYHEMKMIVDLMYESGIHFMNYSISNTAEYGEYYAGPKVINEQSREAMKEILKRIQDGSFAQEFVDDCNNGHKRLLEQREAINTHPIETTGAQIRSMFSWIKKED	U/mg NADPH (specific activity)	0.34 U/mg
Se1_KARI^HF2-his6: S. exigua KARI variant S61C (protein, UniProt D0WGK0 1-342, looked up, variant S61C, His6 tag, S. exigua KARI variant S61C) Ketol-acid reductoisomerase …: MSVKTKEKEMAVTILYEQDVDPKVIQGLKVGIIGYGSQGHAHALNLMDSGVDVRVGLREGCSSWKTAEEAGLKVTDMDTAAEEADVIMVLVPDEIQPKVYQEHIAAHLKAGNTLAFAHGFNIHYGYIVPPEDVNVIMCAPKGPGHIVRRQFTEGSGVPDLACVQQDATGNAWDIVLSYCWGVGGARSGIIKATFAEETEEDLFGEQAVLCGGLVELVKAGFETLTEAGYPPELAYFECYHEMKMIVDLMYESGIHFMNYSISNTAEYGEYYAGPKVINEQSREAMKEILKRIQDGSFAQEFVDDCNNGHKRLLEQREAINTHPIETTGAQIRSMFSWIKKED	U/mg NADPH (specific activity)	0.23 U/mg
Se1_KARI^AC1: S. exigua KARI variant S63D, I95A (protein, UniProt D0WGK0 1-342, looked up, variant S63D I95A) Ketol-acid reductoisomerase …: MSVKTKEKEMAVTILYEQDVDPKVIQGLKVGIIGYGSQGHAHALNLMDSGVDVRVGLREGSSDWKTAEEAGLKVTDMDTAAEEADVIMVLVPDEAQPKVYQEHIAAHLKAGNTLAFAHGFNIHYGYIVPPEDVNVIMCAPKGPGHIVRRQFTEGSGVPDLACVQQDATGNAWDIVLSYCWGVGGARSGIIKATFAEETEEDLFGEQAVLCGGLVELVKAGFETLTEAGYPPELAYFECYHEMKMIVDLMYESGIHFMNYSISNTAEYGEYYAGPKVINEQSREAMKEILKRIQDGSFAQEFVDDCNNGHKRLLEQREAINTHPIETTGAQIRSMFSWIKKED	U/mg NADPH (specific activity)	0.4 U/mg
Se1_KARI^4E10: S. exigua KARI variant L57V, R58P, S61C (protein, UniProt D0WGK0 1-342, looked up, variant L57V R58P S61C) Ketol-acid reductoisomerase …: MSVKTKEKEMAVTILYEQDVDPKVIQGLKVGIIGYGSQGHAHALNLMDSGVDVRVGVPEGCSSWKTAEEAGLKVTDMDTAAEEADVIMVLVPDEIQPKVYQEHIAAHLKAGNTLAFAHGFNIHYGYIVPPEDVNVIMCAPKGPGHIVRRQFTEGSGVPDLACVQQDATGNAWDIVLSYCWGVGGARSGIIKATFAEETEEDLFGEQAVLCGGLVELVKAGFETLTEAGYPPELAYFECYHEMKMIVDLMYESGIHFMNYSISNTAEYGEYYAGPKVINEQSREAMKEILKRIQDGSFAQEFVDDCNNGHKRLLEQREAINTHPIETTGAQIRSMFSWIKKED	U/mg NADPH (specific activity)	0.36 U/mg
Se1_KARI^EA8-his6: S. exigua KARI variant L57S (protein, UniProt D0WGK0 1-342, looked up, variant L57S, His6 tag, S. exigua KARI variant L57S) Ketol-acid reductoisomerase …: MSVKTKEKEMAVTILYEQDVDPKVIQGLKVGIIGYGSQGHAHALNLMDSGVDVRVGSREGSSSWKTAEEAGLKVTDMDTAAEEADVIMVLVPDEIQPKVYQEHIAAHLKAGNTLAFAHGFNIHYGYIVPPEDVNVIMCAPKGPGHIVRRQFTEGSGVPDLACVQQDATGNAWDIVLSYCWGVGGARSGIIKATFAEETEEDLFGEQAVLCGGLVELVKAGFETLTEAGYPPELAYFECYHEMKMIVDLMYESGIHFMNYSISNTAEYGEYYAGPKVINEQSREAMKEILKRIQDGSFAQEFVDDCNNGHKRLLEQREAINTHPIETTGAQIRSMFSWIKKED	U/mg NADPH (specific activity)	0.25 U/mg

Provide U/mg NADPH (specific activity) for all items below, preserving their order.
1. Se1_KARI^2C6: S. exigua KARI variant L57V, R58P (protein, UniProt D0WGK0 1-342, looked up, variant L57V R58P) Ketol-acid reductoisomerase …: MSVKTKEKEMAVTILYEQDVDPKVIQGLKVGIIGYGSQGHAHALNLMDSGVDVRVGVPEGSSSWKTAEEAGLKVTDMDTAAEEADVIMVLVPDEIQPKVYQEHIAAHLKAGNTLAFAHGFNIHYGYIVPPEDVNVIMCAPKGPGHIVRRQFTEGSGVPDLACVQQDATGNAWDIVLSYCWGVGGARSGIIKATFAEETEEDLFGEQAVLCGGLVELVKAGFETLTEAGYPPELAYFECYHEMKMIVDLMYESGIHFMNYSISNTAEYGEYYAGPKVINEQSREAMKEILKRIQDGSFAQEFVDDCNNGHKRLLEQREAINTHPIETTGAQIRSMFSWIKKED
2. Se1_KARI^CD10-his6: S. exigua KARI variant Y35H (protein, UniProt D0WGK0 1-342, looked up, variant Y35H, His6 tag, S. exigua KARI variant Y35H) Ketol-acid reductoisomerase …: MSVKTKEKEMAVTILYEQDVDPKVIQGLKVGIIGHGSQGHAHALNLMDSGVDVRVGLREGSSSWKTAEEAGLKVTDMDTAAEEADVIMVLVPDEIQPKVYQEHIAAHLKAGNTLAFAHGFNIHYGYIVPPEDVNVIMCAPKGPGHIVRRQFTEGSGVPDLACVQQDATGNAWDIVLSYCWGVGGARSGIIKATFAEETEEDLFGEQAVLCGGLVELVKAGFETLTEAGYPPELAYFECYHEMKMIVDLMYESGIHFMNYSISNTAEYGEYYAGPKVINEQSREAMKEILKRIQDGSFAQEFVDDCNNGHKRLLEQREAINTHPIETTGAQIRSMFSWIKKED

1. 0.33 U/mg
2. 0.19 U/mg
